Experiment: soluble on expression in E. coli; label from the status in PepcDB or PDB records
Measured Metric: soluble on expression in E. coli

>  <Chain>
MGSDKIHHHHHHAIVSAKWERTSSLQGIQLKQASIEGLFGGKQSISILTIGRAEGYTAFIATTDSLTTTSQLAEQSRSSAAINGSYFSIKEGFSTCYLRKNEAVIDTTTTEERHLRVNGAVHMVDNNIRIIPWNDENEKKGFPLDGDILASGPLLMQDGKTCDFTTIDREFSETRHPRSAIALTKEGDIMLVAVDGRAEGHADGMSIAELAYLLRILKAHCALNLDGGGSTTLWVNGQVVNHPSDNKKFDNKGERKVHNIIAVRRLTNP

>  <Measured Metric>
soluble on expression in E. coli

>  <Value Reported>
not soluble

$$$$
>  <Chain>
MGSDKIHHHHHHMRALLCGYYGEGNGGDEALLAALLQLLPPTVEPLVLSGNPAATRTCYGVEACDRRSGAAVWQALRRSDLFIFGGGSLIQDVTSWTSPLYYCGLMGLAQQLGLKTIAWAQGIGPLQRKRTRWLARRTFQHCDRITVRDRGSAALLKEWGISVAIAPDPVWALEPLPLDQPLSNQEAIAVCLRPHPELTPERSDRLKAALTTLQSQTQAPILLIPFHHQQDRPLAAQWASEIPQAEVLDWQHPRQLLSYFQSVRLTIAMRFHGLVMAAAAGNRCFGLSYDPKVRRFLDALEQPGWDLPEIPDSAEAIAAAWLESWQAEPIHAAAIADLRQQVDVHRQALVF

>  <Measured Metric>
soluble on expression in E. coli

>  <Value Reported>
not soluble

$$$$

---

Assay: soluble on expression in E. coli; label from the status in PepcDB or PDB records

>  <Chain>
MGSDKIHHHHHHMIDFHVHTTFSDSTMTPAVAVRHAKMAGYRAVALTDHADHANMDLILRQTLPLARKYSLYAGIEVFAGVELTHVPPALIPEAVREARAMGAQLVLVHGETISDAVETGTNLAAIEGGVDILAHPGLVSDEDAAYAAERGVRFEITTRPGHALTNGHVAMAARRHGVRCVINNDAHHSRDFVNPDHRLAVALGAGLTTAEVTAAEAESRTLLGRLLREVR

>  <soluble on expression in E. coli>
not soluble

$$$$
>  <Chain>
MRPRYRASGPSSSPDRTSSQPGSRSMIQCKRVYEPASPADGRRVLVDRLWPRGIRKEALAMDDWLKEVAPSNEVRKQFCHDPALFDSFREHYRAELQAHPEHWWGLLDSAREGTLTLLYGAHDQQHNNAVVLAEFLEEELDRQQPGSSPTCYADRLS

>  <soluble on expression in E. coli>
not soluble

$$$$
>  <Chain>
MSKPTLAVALIVKNEARHLDECLQTVHDWVDEIVVLDSGSHDETEQVARRYTEKFYVNAKWPGFGLQRQLAQSYVQSDYVLWLDADERVTPELKQSILQAVAANKPDTLYQFARLSWVFGRFIRHSGWYPDRVLRLYPTQLTRYNDALVHEKVHVEPSMKVETLAGDAIHYTYNDVHHYLVKSAGYAKAWADQRQAKGKKASLSQGIVHAVGCFLKMYLLKRGFLDGKQGFLIALLSAHSTFVKYADLWARDNDEHYKR

>  <soluble on expression in E. coli>
not soluble

$$$$
>  <Chain>
MSTENTLSVADLARENVRNLVPYQSARRLGGNGDVWLNANEFPTAVEFQLTQQTLNRYPECQPKAVIENYAQYAGVKPEQVLVSRGADEGIELVIRAFCEPGKDAILYCPPTYGMYSVSAETIGVERRTVPALENWQLDLQGISDNLDGTKVVFVCSPNNPTGQLINPQDLRTLLELTRGKAIVVADEAYIEFCPQATLTGWLVEYPHLVILRTLSKAFALAGLRCGFTLANEEVINLLLKVIAPYPLSTPVADIAAQALCPQGINAMRDRVAQTVQERQYLVNALQQTACVEHVFDSETNYILARFTASSSVFKSLWDQGIILRDQNKQPSLSGCLRITVGTRQENQRVIDALRAEPV

>  <soluble on expression in E. coli>
not soluble

$$$$
>  <Chain>
MSLKLNWDKAIDKAIKRYGLRVEPQLISYFSKAGVSYPPKEIALLAFKSERKVELWAKNPSQEWTHIHDYPLTGFSGRLGPKLRENDKQIPEGIYKLVNFNPFSSMHLSMMINYPNSFDRQKGYMDGRKELGNNIFIHGKNLSVGCLAVGDLAIDQLFILARRVGLKNIQVIIAPNDLRYQKPSTSTFAQPRWLPELYKQITESLKPFKKTKFTAEGHHHHHH

>  <soluble on expression in E. coli>
soluble

$$$$
>  <Chain>
MGSDKIHHHHHHMTMQQVLDGTATFMEHLGLNEEPLGVYYSDDKPENAFGPKTGVPISRELEESGKLDMREVMKSFTCVMGSIWLARKKHGAAFISQTEYGCPGGVYYCAMLQPHLRFIEHYVSTGFEGTPLQGERYMPDPDAMRNFILRVAPRKAPARYCIFKPLSLFSAQEKPEFIIFFARPEVLTGLFTQTVFTTGDMDCVASPFGAGCTNILGWPLYYKEKGIEKAVIGGFDPSARKFMKTDELTFTVPLSLYEKMLAALPESMFTHETDWKNVRKKVARSAKAWRVRRPGAKQPPPSTCPITY

>  <soluble on expression in E. coli>
not soluble

$$$$
>  <Chain>
MKVLILRPAELLSETIRRFREEGFDAYGCPFIKLIYTDFDVPEHDFAIVTSQNAARVLRERGVRLKRVIAIGKKTAELIEAEEVLLPSKFDSETLYEEFAEMLRGKRVVAFRSNAGSEAVKRLSEVADFREIQVYRIEKLQGEEQRREVEKVREGFYDAIVFSSSMIARSLLELCDEKCLEALKNIFVVAIGPPTAKVLAEKGIRAEIPEEYTFDGVIELLKSKKMLEHHHHHH

>  <soluble on expression in E. coli>
soluble

$$$$
>  <Chain>
MRKKSSSNKEETALHPPPENFETATAELEQIVAGMETGQMSLEDALSAYKRGVELLQYCQNILKNSQQQIKILEADMLKHFSPAEHDAS

>  <soluble on expression in E. coli>
not soluble

$$$$
>  <Chain>
MIMRWGEKRYHSLDYELKQMFKEKVYKIALNGGMTCPNRDGHVGTGGCIFCSSQGSGDFAGSARLSIAEQIRQGKADISSKRPVHSYIAYFQAFTNTYAPVETLRALYMEAIADPEVKILSIATRPDCLGADVLALLDEINQIKPVWVELGLQTIHPETSAYIRRGYELSVFEQAVKELRAIGITVIVHTILYLPGETKDDMLDTIHYLNHMDIQGIKLQLLHVLTHTDLAADYEKHPFYIPDMQDYIQFLGTCIAHLNPEIVIHRLTGDGPKDLLIAPLWTSNKRTVLNQLHSHLKEQDIWQGKEYYV

>  <soluble on expression in E. coli>
not soluble

$$$$
>  <Chain>
KADNSSVEKLVVQVQQLDPVKGNKDVGTVEITESAYGLVFTPHLHGLAQGLHGFHIHQNPSCEPKEKDGKLVAGLGAGGHWDPKETKQHGYPWSDNAHLGDLPALFVEHDGSATNPVLAPRLKKLDEVKGHSLMIHEGGDNHSDHPAPLGGGGPRMACGVIK

>  <soluble on expression in E. coli>
soluble

$$$$
>  <Chain>
MPGAPSFIALDWGTSSLRAWRFGESPNPQEKREFPWGIMKLPSQAATREDAFHDTFLRVCGDWLAQTPCPVLACGMLGSAQGWQSAAYLPCPVTLEGLAKQLTPVIHQQQTMLHIIPGVIKEGEMPEVMRGEETQIFGAISMEPALQNAIHQGMPVLIGLPGTHAKWAVVENNTITDFRTFMTGELFDVLSRHSILGATMHPGDEPHWDAFTHGLTAAQEHHQTGLLSTLFSTRSRLLTSNLTSSSQGDYLSGLLIGHELCGLASSLLRDLPATTPIALIGSANLNSRYSQAFSHVFPGRQIHAIPNATEQGLWRIAHAAGLLSTNARECTHAI

>  <soluble on expression in E. coli>
not soluble

$$$$
>  <Chain>
MNYVKIGVGGPVGSGKTALIEKLTRILADSYSIGVVTNDIYTKEDAEFLIKNSVLPKERIIGVETGGCPHTAIREDASMNLEAVEELVQRFPDIQIVFIESGGDNLSATFSPELADATIYVIDVAEGDKIPRKGGPGITRSDLLVINKIDLAPYVGASLEVMERDSKKMRGEKPFIFTNLNTNEGVDKIIDWIKKSVLLEGV

>  <soluble on expression in E. coli>
soluble

$$$$
